- system: rat P2X3 receptor (Rattus norvegicus, UniProt P49654)
- Construct: expressed in transfected cells; host or cells: CHO-K1
- Sequence (P49654 whole entry): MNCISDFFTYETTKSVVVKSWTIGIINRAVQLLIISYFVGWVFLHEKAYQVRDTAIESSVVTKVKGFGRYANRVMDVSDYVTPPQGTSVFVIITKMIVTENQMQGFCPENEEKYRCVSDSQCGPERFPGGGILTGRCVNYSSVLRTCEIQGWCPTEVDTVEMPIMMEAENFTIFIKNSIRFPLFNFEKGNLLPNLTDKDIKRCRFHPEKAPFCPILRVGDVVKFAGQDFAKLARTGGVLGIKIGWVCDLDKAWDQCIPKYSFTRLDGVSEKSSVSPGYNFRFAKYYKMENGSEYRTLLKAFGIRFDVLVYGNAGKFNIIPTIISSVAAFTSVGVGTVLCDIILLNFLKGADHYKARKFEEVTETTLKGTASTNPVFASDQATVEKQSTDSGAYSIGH
- method_description: P2X3/P2X2/3 FLIPR (Fluorometric Imaging Plate Reader) Assay, P2X3
- Type: cell-based
- details: CHO-K1 cells transfected with rat P2X3; agonist α,β-meATP 1 μM; Table 1; read-out: P2X3 pKi (converted)
quantity_measured: Ki (nM)

Cc1ccc(-c2cc(C(=O)NC(C)c3cnccn3)cc(-n3ncnc3C(C)(C)C)c2)nc1 (stereo not shown) = 5.37

I: CCCc1ncnn1-c1cc(C(=O)NC2CC2)cc(-c2ccc(C)cn2)c1
II: CCn1cnnc1-c1cc(C(=O)N[C@@H](C)CO)cc(-c2ccc(C)cc2)c1
III: Cc1ccc(-c2cc(C(=O)N[C@@H](C)CO)cc(-n3ncnc3CC(F)F)c2)nc1
### Prompt Hi! Can you put these in order of Ki, lowest number first? Answer format: the labels, ordered as requested.
### Response I, III, II

The origin of these recorded values is patent US8440708B2.
